target: JAK3 (Homo sapiens, UniProt P52333); assay: Inhibition of a panel of kinases, in vitro HotSpot kinase assay: JAK3; assay type: biochemical; details: D-compounds panel data; 1 μM ATP; read-out: IC50 JAK3
Sequence (P52333 whole entry): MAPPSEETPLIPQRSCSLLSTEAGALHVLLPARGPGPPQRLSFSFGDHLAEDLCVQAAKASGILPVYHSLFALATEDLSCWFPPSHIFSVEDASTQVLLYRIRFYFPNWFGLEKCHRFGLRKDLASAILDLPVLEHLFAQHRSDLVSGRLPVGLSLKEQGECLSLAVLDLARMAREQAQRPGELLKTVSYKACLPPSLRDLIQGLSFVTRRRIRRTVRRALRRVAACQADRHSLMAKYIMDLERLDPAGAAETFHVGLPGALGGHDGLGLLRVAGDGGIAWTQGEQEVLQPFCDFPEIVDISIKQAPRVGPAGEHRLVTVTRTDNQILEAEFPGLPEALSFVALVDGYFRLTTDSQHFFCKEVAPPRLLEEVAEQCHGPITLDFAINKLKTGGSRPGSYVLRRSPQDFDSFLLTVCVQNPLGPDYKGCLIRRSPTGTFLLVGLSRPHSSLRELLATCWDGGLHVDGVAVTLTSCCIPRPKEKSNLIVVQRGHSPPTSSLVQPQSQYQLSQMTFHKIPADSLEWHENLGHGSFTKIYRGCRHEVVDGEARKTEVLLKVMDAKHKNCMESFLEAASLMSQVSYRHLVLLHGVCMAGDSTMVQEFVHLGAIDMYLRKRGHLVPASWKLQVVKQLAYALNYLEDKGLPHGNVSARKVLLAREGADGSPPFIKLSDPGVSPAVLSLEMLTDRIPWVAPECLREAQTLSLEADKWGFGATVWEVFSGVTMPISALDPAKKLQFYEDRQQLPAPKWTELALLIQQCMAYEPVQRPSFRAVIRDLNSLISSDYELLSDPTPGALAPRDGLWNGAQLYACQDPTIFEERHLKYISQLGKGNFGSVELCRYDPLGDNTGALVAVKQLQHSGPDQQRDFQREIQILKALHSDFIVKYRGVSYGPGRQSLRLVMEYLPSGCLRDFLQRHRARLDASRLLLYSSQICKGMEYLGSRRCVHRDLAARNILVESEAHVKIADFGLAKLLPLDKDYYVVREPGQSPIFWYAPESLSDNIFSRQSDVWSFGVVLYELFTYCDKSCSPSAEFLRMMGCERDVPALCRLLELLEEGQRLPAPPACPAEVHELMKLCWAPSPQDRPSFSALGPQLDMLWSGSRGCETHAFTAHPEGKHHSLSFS
pIC50: −log10 of the molar value.
Known pIC50 of a selection of compounds

Here is how some compounds turned out for pIC50.
// recorded pIC50 for CC(=O)N1CCC(c2ccc(Nc3nc(N4CCC[C@@H](NC(=O)c5ccc(C6CC6)cc5)[C@H]4C)cnc3C(N)=O)cc2)CC1 [Example D-296] : 5.00 to 6.00

// recorded pIC50 for CC(=O)NC(C)(C)c1ccc(C(=O)N[C@@H]2CCCN(c3cnc(C(N)=O)c(Nc4cnn(C)c4)n3)[C@@H]2C)cc1 [Example D-107] : 5.00 to 6.00

// recorded pIC50 for COCCN(C)Cc1cc(Nc2nc(N3CCC[C@@H](NC(=O)c4ccc(C5CC5)cc4)[C@H]3C)cnc2C(N)=O)sn1 [Example D-269] : 5.00 to 6.00

// recorded pIC50 for C[C@@H]1[C@H](NC(=O)N(C)C)CCCN1c1cnc(C(N)=O)c(Nc2ccc(N3CCN(C4CCCC4)CC3)cc2)n1 [Example D-182] : 6.00 to 7.00

// recorded pIC50 for C[C@@H]1[C@H](NC(=O)c2ccc(C(C)(C)C)cc2)CCCN1c1nnc(C(N)=O)c(Nc2cnn(C)c2)n1 [Example D-285] : 6.00 to 7.00

Continuing:
// recorded pIC50 for C[C@@H]1[C@H](NC(=O)c2ccc(C3CC3)cc2)CCCN1c1cnc(C(N)=O)c(Nc2cnn(C3CCN(C)CC3)c2)n1 [Example D-185] : 5.00 to 6.00

// recorded pIC50 for CN(C)C(=O)N[C@@H]1CCCN(c2cnc(C(N)=O)c(Nc3ccc(C4(C)CCN(C5CCCC5)CC4)cc3)n2)[C@H]1CO [Example D-60] : 5.00 to 6.00

// recorded pIC50 for C[C@@H]1[C@H](NC(=O)c2ccc(C3CC3)cc2F)CCCN1c1cnc(C(N)=O)c(Nc2ccc(N3CCN(C)CC3=O)cc2)n1 [Example D-10] : 5.00 to 6.00

// recorded pIC50 for Cc1cc(Nc2nc(N3CCC[C@@H](c4ncc(-c5ccc(C6CC6)cc5)[nH]4)[C@H]3C)cnc2C(N)=O)sn1 [Example D-186] : 5.00 to 6.00
